Values compiled from PubChem BioAssay (NCI).

tested on: CCRF-CEM leukemia; assay: NCI tumour cell line growth inhibition, 48 h
Recorded Metric: TGI

These solved cases illustrate the format of a correct answer.
COc1ccc2c(c1)c(=O)c1c(NCCCN(C)C)ccc3ncn2c31	45.3 µM
C/C=C(\C)C(=O)N1c2ccccc2CC1c1c(C)[nH]c2ccccc12 (stereo not given)	> 100 µM
CC(C)=CCc1c(O)c(C(=O)CC(C)C)c(O)c2c(-c3ccccc3)cc(=O)oc12	> 50 µM
CC1OC(OC2C[C@](O)(C(=O)CBr)Cc3c(O)c4c(c(O)c32)C(=O)c2ccccc2C4=O)C(F)C(O)C1O (stereo not given in full)	3.04 µM
Cc1ccc(-n2c3c(c4c(CN)c(O)ccc42)CCc2ccccc2C3=O)cc1	8.44 µM
Fc1ccc2c(c1)cc1ccc3cccc4ccc2c1c34	> 100 µM

Suppose we examine the compound `CCCCCCCCCCCCC(NC(C)=O)(C(=O)OCC)C(=O)OCC` ; what TGI value has been reported? 41.6 µM

Suppose we examine the compound `COC(=O)/C=C/c1cnc2c(c1)oc(=O)n2C` ; what TGI value has been reported? > 100 µM

Suppose we examine the compound `COC(=O)C1=C(O)c2cc3c(cc2[C@H](c2cc(OC)c(OC)c(OC)c2)C1)OCO3` ; what TGI value has been reported? > 100 µM

Suppose we examine the compound `CCCCCCCCCC[N+](C)(C)C` ; what TGI value has been reported? 2.32 µM

###

system: HCT-15 colon; assay: NCI tumour cell line growth inhibition, 48 h
Consider the following compounds and their measured TGI readings.

These solved cases illustrate the format of a correct answer.
O=C(CC1SC(=Nc2ccccc2Cl)NC1=O)Nc1ccc(Cl)cc1 (stereo unspecified)	30.8 µM
CCOC(=O)/C=C(/C(=O)OCC)n1ccc(=O)n(CC(=O)OCC)c1=O	1.84 µM
Cc1cc(=O)n2nc(CSc3n[nH]c(=S)s3)sc2n1	> 100 µM
Cc1nc(-n2nc(-c3ccccc3)cc2-c2ccccc2)sc1C(=O)/C=C/c1ccc(Cl)cc1	> 100 µM
CCOC(=O)c1csc(-c2nc(CCNC(=O)c3ccccc3)sc2Cl)n1	> 100 µM

Suppose we examine the compound `CC(C)(C)C(=O)CC(=O)C(F)(F)C(F)(F)C(F)(F)F.[Ag]` ; what TGI value has been reported? 31.3 µM

Suppose we examine the compound `CCCCCC(=C/c1ccccc1)/C=N/N=C(N)N` ; what TGI value has been reported? 5 µM

Suppose we examine the compound `O=C(NNC(=O)c1c(Cl)c(Cl)c(Cl)c(Cl)c1-c1nc2ccccc2[nH]1)c1ccc(Cl)cc1` ; what TGI value has been reported? > 100 µM

###

tested on: KM20L2 colon; test: NCI tumour cell line growth inhibition, 48 h
Consider the following compounds and their measured TGI readings.

Cn1cc2ccccc2c1-c1nc(F)nc(Nc2ccc(N)cc2)n1	47.4 µM

Suppose we examine the compound `Nc1nc(CC2(O)CCCCC2)cc(-c2ccccc2)n1` ; what TGI value has been reported? > 53.7 µM

Suppose we examine the compound `COc1cc(/C=C2\Cc3ccccc3C2=O)cc(OC)c1OC` ; what TGI value has been reported? > 100 µM

Suppose we examine the compound `CCOc1ncnc2ccc(Cl)c(I)c12` ; what TGI value has been reported? > 100 µM

Suppose we examine the compound CC(=O)OC1(C#N)CC2OC1C1N=NN(C(=O)OC(C)(C)C)C21 (stereo not given) ; what TGI value has been reported? > 100 µM

###

system: OVCAR-4 ovarian; experiment: NCI tumour cell line growth inhibition, 48 h
Consider the following compounds and their measured TGI readings.
# number only, unit µM dropped from output

These solved cases illustrate the format of a correct answer.
C=C1C(=O)O[C@H]2[C@H]1CC/C(Cn1cc(-c3ccsc3)nn1)=C\CC[C@@]1(C)O[C@@H]21	7.61
Fc1cc2nc3n(c2cc1F)C(c1c(Cl)cccc1Cl)SC3 (stereo not given)	30.1
COC(=O)[C@]1(Cc2ccc3ccccc3c2)CCCCCCN1C(=O)c1ccccc1	26
CCN(CC)CCC(=O)N1C/C(=C/c2ccccc2)C(=O)/C(=C\c2ccccc2)C1	6.04
COC(=O)C1(Cc2ccc(C)cc2)Cc2c(C)cccc2C1=O (stereo not given)	98.9
CC(=O)Oc1cc(Cl)c(OC(C)=O)c2c(OC(C)=O)c(C)c(O[Si](C)(C)C(C)(C)C)cc12	26.2

Return TGI measured with OVCAR-4 ovarian given this compound: `COCC(=O)NC/C=C/c1ccc2ncnc(Nc3ccc(Oc4ccc(C)nc4)c(C)c3)c2c1` 31.1

Return TGI measured with OVCAR-4 ovarian given this compound: `O=c1c(-c2nc3ccccc3[nH]2)cc2ccccc2n1Cc1cn(Cc2ccccc2Cl)nn1` 3.44

###

Consider the following compounds and their measured TGI readings.
tested on: SNB-19 CNS; assay: NCI tumour cell line growth inhibition, 48 h
# number only, unit µM dropped from output

These solved cases illustrate the format of a correct answer.
COc1ccc(-c2cc(-c3ccc(Cl)cc3)nc(SCCCCCCC(=O)NO)n2)cc1	23.6
CN[C@H]1CC[C@]23C[C@]24CC[C@]2(C)[C@@H]([C@H](C)N(C)C)CC[C@@]2(C)[C@@H]4CC[C@H]3C1(C)C	43.3

Turning now to a further compound:
Suppose we examine the compound `CC(C)c1cc(C(=O)[O-])c(O)c(C(C)C)c1.CC(C)c1cc(C(=O)[O-])c(O)c(C(C)C)c1.CC(C)c1cc(C(=O)[O-])c(O)c(C(C)C)c1.CC(C)c1cc(C(=O)[O-])c(O)c(C(C)C)c1.CC(C)c1cc(C(=O)[O-])c(O)c(C(C)C)c1.CC(C)c1cc(C(=O)[O-])c(O)c(C(C)C)c1.[Cu+2].[Mn+2].[Mn+2]` ; what TGI value has been reported? 47.8

###

Consider the following compounds and their measured TGI readings.
tested on: HCT-15 colon; test: NCI tumour cell line growth inhibition, 48 h
Where a SMILES comes first, the peptide text is derived from it. [ ]: non-standard residue; d: D form. The star is where a group is joined. ξ: configuration not given here. ξPhe(4-NO2) = NC(Cc1ccc([N+](=O)[O-])cc1)C(=O)O; Boc = CC(C)(C)OC(=O)*

CC(=O)Oc1cc(Cl)c(OC(C)=O)c2c(OC(C)=O)c(C)c(O[Si](C)(C)C(C)(C)C)cc12	20.3 µM
NS(=O)(=O)c1nnc(NC(=O)/C=C/C(=O)O)s1	> 100 µM
CO/N=C(\C(=O)[N-][n+]1cnn(CC(=O)O)c1)c1csc(N)n1	> 10 µM
C=C1C(=O)O[C@H]2[C@H]1CC/C(Cn1cc(-c3ccsc3)nn1)=C\CC[C@@]1(C)O[C@@H]21	2.54 µM
C[C@]12CC/C(=N\O)C=C1CC[C@@H]1[C@@H]2CC[C@]2(C)C(=N/O)/C(=C/c3ccncc3)C[C@@H]12	> 100 µM
S=C(S)N1CCN(c2ccccc2)CC1	> 100 µM
CN(/N=C/c1ccccc1C(=O)O)C1=NCCCCN1	> 100 µM
CCNC(=O)CNC(=O)C(Cc1ccc([N+](=O)[O-])cc1)NC(=O)OC(C)(C)C (stereo not given) (Boc-[ξPhe(4-NO2)]-Gly-NHEt)	> 100 µM

Suppose we examine the compound `CCOc1ncnc2ccc(Cl)c(I)c12` ; what TGI value has been reported? > 100 µM

Suppose we examine the compound `CCN(CC)CCOc1ccc(Cc2ccccc2)cc1` ; what TGI value has been reported? 53.9 µM

###

Consider the following compounds and their measured TGI readings.
tested on: HCT-15 colon; assay: NCI tumour cell line growth inhibition, 48 h
# number only, unit µM dropped from output

CN1CCN(Cc2ccc(NC(=O)c3cccc(C#Cc4c(N)ncc5ccc(F)cc45)c3)cc2C(F)(F)F)CC1	1.41

Suppose we examine the compound CCCCC(N)CSSCC(N)CCCC (centres undefined) ; what TGI value has been reported? 63.2

###

Consider the following compounds and their measured GI50 readings.
test system: SK-MEL-2 melanoma; experiment: NCI tumour cell line growth inhibition, 48 h

These solved cases illustrate the format of a correct answer.
COc1ccc(-c2cc(-c3ccc(Cl)cc3)nc(SCCCCCCC(=O)NO)n2)cc1	5730 nM
N.N.NCCCCCN.O=C([O-])CC(=O)[O-].O=C([O-])CC(=O)[O-].[Pt+4].[Pt+4]	> 100000 nM
N#Cc1ccc(NC(=O)Nc2nc3ccc(OC(F)(F)F)cc3s2)cc1	1780 nM
CCCCCC(=C/c1ccccc1)/C=N/N=C(N)N	1700 nM

Suppose we examine the compound `C=C1C(=O)O[C@H]2[C@H]1CC/C(Cn1cc(-c3ccsc3)nn1)=C\CC[C@@]1(C)O[C@@H]21` ; what GI50 value has been reported? 2270 nM

Suppose we examine the compound `Cc1ccc(-n2c3c(c4c(CN)c(O)ccc42)CCc2ccccc2C3=O)cc1` ; what GI50 value has been reported? 12000 nM
